Give % inhibition for every item shown.
Target: acetylcholinesterase (from human erythrocytes) (Homo sapiens)
Construct: acetylcholinesterase (from human erythrocytes, purchased from Sigma-Aldrich, Seoul, Korea); purchased Sigma-Aldrich, Seoul, Korea; host or cells: human erythrocytes (natural source)
Assay: biochemical
Settings: Concentration 0.245098 (unit not given); IC50 Raw Data sheet
// return numeric value only (unit: %, not printed)

Query: Which measured % inhibition value corresponds to COc1ccc(CCN(Cc2cccc(C)c2)S(=O)(=O)c2ccc(C)cc2)cc1 ?
Response: 71.8079

Query: COc1ccc(CCN(CCCc2ccccc2)S(=O)(=O)c2ccc(C)cc2)cc1 ?
Response: 42.5959

Query: COc1ccc(CCN(Cc2ccc(C)cc2)S(=O)(=O)c2ccc(C)cc2)cc1 ?
Response: 49.7613

Query: COc1ccc(CCN(Cc2ccccc2C)S(=O)(=O)c2ccc(C)cc2)cc1 ?
Response: 62.858

----------
Give inhibition (Mean) for every item shown.
Molecular target: acetylcholinesterase (from human erythrocytes) (Homo sapiens)
Construct: acetylcholinesterase (from human erythrocytes, purchased from Sigma-Aldrich, Seoul, Korea); purchased Sigma-Aldrich, Seoul, Korea; host or cells: human erythrocytes (natural source)
Assay: biochemical
Settings: Conc: 0.0612745 (unit not given); mean of three; Raw Data of IC50 sheet
API note: the answer field is a bare number with no unit suffix.

Query: Find inhibition (Mean) (acetylcholinesterase (from human erythrocytes) (Homo sapiens)) for the entry COc1ccc(CCN(Cc2cccc(C)c2)S(=O)(=O)c2ccc(C)cc2)cc1
Response: 45.6873

Query: COc1ccc(CCN(Cc2ccccc2C)S(=O)(=O)c2ccc(C)cc2)cc1 ?
Response: 44.9216

Query: COc1ccc(CCN(Cc2ccc(C)cc2)S(=O)(=O)c2ccc(C)cc2)cc1 ?
Response: 30.8306

Query: COc1ccc(CCN(CCCc2ccccc2)S(=O)(=O)c2ccc(C)cc2)cc1 ?
Response: 29.6527

----------
Give pIC50 for every item shown.
Biological target: acetylcholinesterase (from human erythrocytes) (Homo sapiens)
Construct: acetylcholinesterase (from human erythrocytes, purchased from Sigma-Aldrich, Seoul, Korea); purchased Sigma-Aldrich, Seoul, Korea; host or cells: human erythrocytes (natural source)
Experiment: biochemical
Conditions: values as printed in abstract and discussion; read-out: acetylcholinesterase IC50
Description: The inhibitory activities of synthesized compounds were determined spectrophotometrically using acetylthiocholine iodide as substrate by following the method of ([Ellman et al., 1961]). […] After that 5,5′ Dithiobis (2 nitrobenzoic acid) (0.3 mM, 20 µL) and acetylthiocholine iodide (1.8 mM, 20 µL) were added to the reaction mixture and incubated at 37 °C for 10 min, followed by the measurement of absorbance at 412 nm. […] Each concentration was analyzed in three independent experiments run in triplicate. […]
# pIC50: negative log10 of molar concentration; output just the value

Query: Find pIC50 (acetylcholinesterase (from human erythrocytes) (Homo sapiens)) for the entry CCCN(CCc1ccc(OC)cc1)S(=O)(=O)c1ccc(C)cc1
Response: 6.92

Query: CCCCN(CCc1ccc(OC)cc1)S(=O)(=O)c1ccc(C)cc1 ?
Response: 6.91

----------
Give % inhibition for every item shown.
Molecular target: acetylcholinesterase (from human erythrocytes) (Homo sapiens, UniProt P22303)
Construct: acetylcholinesterase (from human erythrocytes, purchased from Sigma-Aldrich, Seoul, Korea); purchased Sigma-Aldrich, Seoul, Korea; host or cells: human erythrocytes (natural source)
Sequence (P22303 32-617 isoform P22303-2 limits assumed): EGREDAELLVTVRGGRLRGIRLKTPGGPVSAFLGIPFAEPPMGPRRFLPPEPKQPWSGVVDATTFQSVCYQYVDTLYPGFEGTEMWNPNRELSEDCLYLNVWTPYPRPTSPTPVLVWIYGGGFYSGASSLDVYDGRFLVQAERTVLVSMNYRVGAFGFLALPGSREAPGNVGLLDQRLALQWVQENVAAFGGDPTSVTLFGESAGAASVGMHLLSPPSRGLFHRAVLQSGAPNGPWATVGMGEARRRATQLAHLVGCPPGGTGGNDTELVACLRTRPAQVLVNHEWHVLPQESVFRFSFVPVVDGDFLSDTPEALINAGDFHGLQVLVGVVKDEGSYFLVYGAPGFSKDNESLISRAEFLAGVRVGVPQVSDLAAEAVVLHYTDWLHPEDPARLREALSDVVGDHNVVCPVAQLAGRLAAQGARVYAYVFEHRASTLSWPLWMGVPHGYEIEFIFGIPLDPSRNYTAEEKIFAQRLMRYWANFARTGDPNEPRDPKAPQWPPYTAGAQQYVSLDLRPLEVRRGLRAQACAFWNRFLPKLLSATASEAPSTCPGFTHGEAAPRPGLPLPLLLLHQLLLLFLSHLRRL
Assay: biochemical
Conditions: Concentration 0.0612745 (unit not given); IC50 Raw Data sheet

Query: Which measured % inhibition value corresponds to COc1ccc(CCN(CCCc2ccccc2)S(=O)(=O)c2ccc(C)cc2)cc1 ?
Response: 32.2845%

Query: COc1ccc(CCN(Cc2ccccc2C)S(=O)(=O)c2ccc(C)cc2)cc1 ?
Response: 44.3081%

Query: COc1ccc(CCN(Cc2cccc(C)c2)S(=O)(=O)c2ccc(C)cc2)cc1 ?
Response: 45.5947%

Query: COc1ccc(CCN(Cc2ccc(C)cc2)S(=O)(=O)c2ccc(C)cc2)cc1 ?
Response: 30.9943%
